The reader will find reported PBM E-score values listed item by item below.
# TARGET UNDER TEST: Cst6 (UniProt P40535)
# Sequence (P40535 whole entry): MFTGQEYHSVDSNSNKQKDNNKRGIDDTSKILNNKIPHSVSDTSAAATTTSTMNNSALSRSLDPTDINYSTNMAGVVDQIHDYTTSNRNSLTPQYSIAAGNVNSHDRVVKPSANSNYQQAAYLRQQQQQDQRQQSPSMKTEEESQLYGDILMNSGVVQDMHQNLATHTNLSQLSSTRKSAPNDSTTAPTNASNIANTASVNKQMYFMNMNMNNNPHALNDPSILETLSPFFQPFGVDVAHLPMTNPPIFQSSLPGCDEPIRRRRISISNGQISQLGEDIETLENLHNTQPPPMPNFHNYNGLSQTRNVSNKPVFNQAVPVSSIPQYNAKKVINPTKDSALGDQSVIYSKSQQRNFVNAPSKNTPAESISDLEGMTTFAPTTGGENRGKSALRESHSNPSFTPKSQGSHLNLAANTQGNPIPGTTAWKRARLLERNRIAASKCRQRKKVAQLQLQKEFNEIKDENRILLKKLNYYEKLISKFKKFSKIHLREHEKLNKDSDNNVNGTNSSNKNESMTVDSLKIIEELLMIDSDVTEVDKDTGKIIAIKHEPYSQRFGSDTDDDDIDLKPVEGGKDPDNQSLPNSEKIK
# PROTOCOL TEXT: PBM E-score (8-mer binding enrichment) (E-score (-0.5 to 0.5)); higher = stronger / more preferred TF binding
# CONDITION SET: protein concentration: 200 nM; construct: GST-DNA-binding domain
Whole data set: some 33,000 sequences, median “E-score (-0.5 to 0.5)” near -0.016, cut for the highest 2% near 0.31. Many of the other results were omitted from the sample, so the highest values are more common in it than they were.
// no unit, no text: just the number

Please review the entries below; each comes with its answer.
INSERT INTO assay_data (sequence_content, target_under_test, measured_attribute, quantitative_readout) VALUES
  ('CCCGTCAG', 'Cst6 (UniProt P40535)', 'PBM E-score', -0.282),
  ('AAAAGTGA', 'Cst6 (UniProt P40535)', 'PBM E-score', 0.306),
  ('GATGTCAA', 'Cst6 (UniProt P40535)', 'PBM E-score', 0.245);

Task item: State the measured PBM E-score (Cst6 (UniProt P40535)) of ACTGCGTC
Reply: 0.147

Task item: State the measured PBM E-score (Cst6 (UniProt P40535)) of GAGCAAAA
Reply: 0.0129

Task item: State the measured PBM E-score (Cst6 (UniProt P40535)) of AATGACAC
Reply: 0.273

Task item: State the measured PBM E-score (Cst6 (UniProt P40535)) of TATGACAA
Reply: 0.25

----------
# TARGET UNDER TEST: Cst6 (UniProt P40535)
# PROTOCOL TEXT: PBM E-score (8-mer binding enrichment) (E-score (-0.5 to 0.5)); higher = stronger / more preferred TF binding
# CONDITION SET: protein concentration: 200 nM; construct: GST-DNA-binding domain
Over roughly 33,000 sequences, “E-score (-0.5 to 0.5)” has its median near -0.016; the highest 2% begin near 0.31. The sample as a whole holds a higher share of the highest values than the screen did.
MEASURED ATTRIBUTE: PBM E-score
// no unit, no text: just the number

Please review the entries below; each comes with its answer.
INSERT INTO measurements (sequence_content, quantitative_readout) VALUES
  ('CGCGGCGA', 0.27),
  ('AAGCAAAC', 0.0375),
  ('ACACCACG', -0.0337),
  ('ATTTCCAG', 0.0306),
  ('CTATCATA', 0.14);

Task item: Give a short answer stating reported PBM E-score for GAGCAGGA .
Reply: -0.154

Task item: Give a short answer stating reported PBM E-score for GTATATTA .
Reply: 0.261

Task item: Give a short answer stating reported PBM E-score for AATCCAAT .
Reply: 0.139

Task item: Give a short answer stating reported PBM E-score for AATGATCC .
Reply: 0.026

Task item: Give a short answer stating reported PBM E-score for GAGAGAGC .
Reply: -0.197

Task item: Give a short answer stating reported PBM E-score for ATATCATG .
Reply: 0.19

Task item: Give a short answer stating reported PBM E-score for AATGATGC .
Reply: 0.347

Task item: Give a short answer stating reported PBM E-score for GAAGCTGC .
Reply: -0.117

Task item: Give a short answer stating reported PBM E-score for ATGACGCC .
Reply: 0.442

Task item: Give a short answer stating reported PBM E-score for CTGATGTC .
Reply: 0.287

Task item: Give a short answer stating reported PBM E-score for ATGATGTA .
Reply: 0.462

Task item: Give a short answer stating reported PBM E-score for ACGTCAGT .
Reply: 0.472

Task item: Give a short answer stating reported PBM E-score for ATAAGCTC .
Reply: -0.0286

Task item: Give a short answer stating reported PBM E-score for CTAACTAG .
Reply: 0.0585

Task item: Give a short answer stating reported PBM E-score for CGGATGTA .
Reply: -0.0158
